measurement_target: elastase-like proteinase of R. ferrugineus midgut
test_protocol: Elastase-like serine proteinase specific activity assay (SAAPLpNA) in 4th instar midgut homogenate
Assay type: biochemical, Rhynchophorus ferrugineus
assay_context: in vitro, midgut of 4th instar larvae
Protocol: Serine proteinase specific activities were assayed, as described by Olga et al. with modifications, using a rapid microplate assay with synthetic substrates in 150 µL reaction mixtures containing a serine protease assay buffer (100 mM Tris-HCl, pH 8.1). […] The 4th instar midguts were homogenized with the assay buffer. […] Nitroaniline was measured at 405 nm using an ELISA plate reader. […]
reported_property: IC50 against elastase (µg/mL)
Answers are plain numbers, in µg/mL.

| compound | reported_property | observed_measurement |
| --- | --- | --- |
| CC12CCC(CC1)C(C)(C)O2 | IC50 against elastase | 116 |

For every listed record, write down its IC50 against elastase.
1. Cc1ccc(C(C)C)c(O)c1
2. C=CC(C)(O)CCC=C(C)C (centres unmarked)
3. Cc1ccc(C(C)C)cc1

Out:
1. 195
2. 109.1
3. 169

In: I am curious: what IC50 against elastase value has been reported for CC1=CCC(C(C)C)=CC1 ?
Out: 163

----------
measurement_target: trypsin-like serine proteinase of R. ferrugineus midgut
test_protocol: Trypsin-like serine proteinase specific activity assay (BApNA) in 4th instar midgut homogenate
Type: biochemical, Rhynchophorus ferrugineus
assay_context: in vitro, midgut of 4th instar larvae
Experimental: Serine proteinase specific activities were assayed, as described by Olga et al. with modifications, using a rapid microplate assay with synthetic substrates in 150 µL reaction mixtures containing a serine protease assay buffer (100 mM Tris-HCl, pH 8.1). […] The 4th instar midguts were homogenized with the assay buffer. […] Nitroaniline was measured at 405 nm using an ELISA plate reader. […]
reported_property: IC50 against trypsin-like serine proteinase (µg/mL)
Answers are plain numbers, in µg/mL.

Guide cases for IC50 against trypsin-like serine proteinase, answers given:
| smiles_structure | observed_measurement |
| --- | --- |
| CC1=CCC(C(C)C)=CC1 | 105.7 |
| CC12CCC(CC1)C(C)(C)O2 | 71.7 |
| Cc1ccc(C(C)C)cc1 | 98.4 |

Please turn your attention to the following entry.
In: Lab note: need IC50 against trypsin-like serine proteinase with trypsin-like serine proteinase of R. ferrugineus midgut for entry C=CCc1ccc(O)c(OC)c1 , please look it up.
Out: 74.1
